- ASSAY_REMARKS: Clearance in Sprague-Dawley rat at 3 mg/kg, iv
- Assay type: ADME, organism-based
- CONDITION_INFO: in vivo
MEASURED_ENDPOINT: clearance (mL/min/kg)
Return type: number; implicit unit mL/min/kg.

Prompt: Using the record for `Cc1c(COc2ncc(Cl)cn2)nnn1C1CCN(CC2CC2)CC1` , report its clearance.
Response: 10

----------
- ASSAY_REMARKS: Elimination half life in Sprague-Dawley rat at 1 mg/kg, iv
- Assay type: ADME, organism-based
- CONDITION_INFO: in vivo, read-out: beta t1/2 (converted)
MEASURED_ENDPOINT: half-life

Prompt: What measured half-life goes with `Clc1cnc(OCc2cn(C3CCN(CC4CC4)CC3)nn2)nc1` ?
Response: 1.6 h

----------
- ASSAY_REMARKS: Clearance in Sprague-Dawley rat at 1 mg/kg, iv
- Assay type: ADME, organism-based
- CONDITION_INFO: in vivo
MEASURED_ENDPOINT: clearance
State the value, then name its unit.

Prompt: Item under review: `Clc1cnc(OCc2cn(C3CCN(CC4CC4)CC3)nn2)nc1` . Reported clearance?
Response: 21.7 mL/min/kg

----------
Would you kindly list Activity for each of these molecules?
- TESTED_ON: Fibroblast growth factor receptor 1 (Rattus norvegicus)
- ASSAY_REMARKS: Modulation of FGFR in Wistar rat neuronal cells assessed as protection against glutamate-induced toxicity at 10 uM pretreated for 24 hrs followed by glutamate-stimulation and measured after 24 hrs by CCK8 assay relative to SUN13837
- Assay type: cell-based
Write the number in % without appending the unit.

Prompt: Entry under review: `Cc1ccc(OCc2cn(C3CCN(CC4CC4)CC3)nn2)nn1` . Reported Activity?
Response: 118

Prompt: Query (molecule): `Cc1cnc(OCc2cn(C3CCN(Cc4ccccc4)CC3)nn2)nc1` ; field requested: Activity
Response: 66

Prompt: I would be grateful if you could share the reported Activity for `Cc1cnc(OCc2cn(C3CCN(CC4CC4)CC3)nn2)nc1` .
Response: 100

Prompt: Could you tell me which Activity is on file for `Clc1cnc(OCc2cn(C3CCN(Cc4ccccc4)CC3)nn2)nc1` ?
Response: 43

----------
- TESTED_ON: Fibroblast growth factor receptor 1 (Rattus norvegicus)
- ASSAY_REMARKS: Modulation of FGFR in Wistar rat neuronal cells assessed as protection against glutamate-induced toxicity at 10 uM pretreated for 24 hrs followed by glutamate-stimulation and measured after 24 hrs by CCK8 assay relative to SUN13837
- Format: cell-based
Hi there, I'd appreciate the recorded Activity for every entry that follows.
Report the figure along with its unit, number first.

Prompt: Tell me the measured Activity of `Cc1nc(OCc2cn(C3CCN(Cc4ccccc4)CC3)nn2)nc(C)c1N` , please.
Response: 134%

Prompt: Fill in the blank: the reported Activity of `Clc1cnc(OCc2cn(C3CCN(CC4CC4)CC3)nn2)nc1` is ____.
Response: 162%

Prompt: Would you kindly share the measured Activity for `Cc1nc(OCc2cn(C3CCN(CC4CC4)CC3)nn2)nc(C)c1N` ?
Response: 116%

Prompt: Which Activity is listed for `Cc1c(COc2ncc(Cl)cn2)nnn1C1CCN(CC2CC2)CC1` ?
Response: 311%

Prompt: // query Activity value for entry `Cc1ccc(OCc2cnnn2C2CCN(Cc3ccccc3)CC2)nn1`
Response: 73%

Prompt: Please give the measured Activity for this compound: `Cc1ccc(OCc2cn(C3CCN(Cc4ccccc4)CC3)nn2)nn1`
Response: 135%

----------
- ASSAY_REMARKS: Lipophilicity, log P of the compound by RP-HPLC analysis
- Format: physicochemical
MEASURED_ENDPOINT: logP
Answer with a number only.

Prompt: Query: logP; subject: `Cc1ccc(OCc2cn(C3CCN(Cc4ccccc4)CC3)nn2)nn1`
Response: 3.5

Prompt: What does the data say about its logP? Entry: `Cc1ccc(OCc2cnnn2C2CCN(Cc3ccccc3)CC2)nn1`
Response: 3.8

Prompt: Which logP value belongs to `Cc1ccc(OCc2cn(C3CCN(CC4CC4)CC3)nn2)nn1` ?
Response: 1.4

Prompt: Form field: reported logP of `Clc1cnc(OCc2cn(C3CCN(CC4CC4)CC3)nn2)nc1`
Response: 2.6

Prompt: For `Cc1nc(OCC(=O)N(C)C2CCN(Cc3ccccc3)CC2)nc(C)c1N` , what is its reported logP?
Response: 2.3

Prompt: Fill in: logP of `Cc1nc(OCc2cn(C3CCN(Cc4ccccc4)CC3)nn2)nc(C)c1N` is ___
Response: 3

Prompt: Which logP reading was recorded for the compound `Cc1c(COc2ncc(Cl)cn2)nnn1C1CCN(CC2CC2)CC1` ?
Response: 2.4

Prompt: Consider the compound shown here: `Cc1nc(OCc2cn(C3CCN(CC4CC4)CC3)nn2)nc(C)c1N` What is its recorded logP?
Response: 1.4

Prompt: Please report the recorded logP for `Clc1cnc(OCc2cn(C3CCN(Cc4ccccc4)CC3)nn2)nc1` .
Response: 5

Prompt: Any idea what logP was measured for `Cc1cnc(OCc2cn(C3CCN(Cc4ccccc4)CC3)nn2)nc1` ?
Response: 4

Prompt: Consider the compound shown here: `Cc1cnc(OCc2cn(C3CCN(CC4CC4)CC3)nn2)nc1` What is its recorded logP?
Response: 1.7
